B1: Caulobacter ParB omega fusion; a variant is named by its letters at X, in order, B8GW30 (parent)
chain: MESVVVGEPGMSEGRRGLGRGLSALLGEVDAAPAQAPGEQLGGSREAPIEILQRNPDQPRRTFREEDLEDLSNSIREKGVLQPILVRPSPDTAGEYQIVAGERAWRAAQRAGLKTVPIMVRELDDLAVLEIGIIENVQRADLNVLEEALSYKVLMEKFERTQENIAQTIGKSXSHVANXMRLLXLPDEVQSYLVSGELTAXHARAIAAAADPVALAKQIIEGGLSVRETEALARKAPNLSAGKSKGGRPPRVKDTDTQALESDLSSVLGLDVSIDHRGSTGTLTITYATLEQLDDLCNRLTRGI

variants of: B1; assay: one-hybrid fitness for binding parS DNA (scaled: cognate 1, non-cognate 0); higher = stronger binding; details: with parS DNA site
The full ranking holds about 81,000 sequences; the median of “one-hybrid fitness for binding parS DNA” is about -0.17, and the highest 2% start at about 0.51. For the sample, the highest values were picked, then their nearest neighbours and some sequences at random.
Readout name: one-hybrid fitness for binding parS DNA

Batch lookup, one-hybrid fitness for binding parS DNA per entry.
1. RAWH
2. RNHM
3. TIPF
4. RADR
5. IQVR
6. RMGT

Result:
1. 0.223
2. ≤ 0.2
3. ≤ 0.2
4. ≤ 0.2
5. ≤ 0.2
6. 0.937

Batch lookup, one-hybrid fitness for binding parS DNA per entry.
1. YWPS
2. DGHT
3. YMLS

Result:
["≤ 0.2", "≤ 0.2", "≤ 0.2"]

Batch lookup, one-hybrid fitness for binding parS DNA per entry.
1. RVNT
2. RIYK
3. RNHG
4. RALK
5. RADG

Result:
[0.899, "≤ 0.2", 0.866, "≤ 0.2", 0.908]

Batch lookup, one-hybrid fitness for binding parS DNA per entry.
1. RVGN
2. RNYP
3. RNQG
4. RNYG

Result:
1. 0.451
2. ≤ 0.2
3. 0.882
4. 0.789

Batch lookup, one-hybrid fitness for binding parS DNA per entry.
1. RSVH
2. RVGT
3. RVNH
4. RADT

Result:
["≤ 0.2", 0.924, "≤ 0.2", 0.732]

Batch lookup, one-hybrid fitness for binding parS DNA per entry.
1. INEC
2. RSVC
3. RIRG
4. LPKF
5. RAQY
6. RVCT

Result:
["≤ 0.2", 0.775, 0.955, "≤ 0.2", 0.469, 0.926]

Batch lookup, one-hybrid fitness for binding parS DNA per entry.
1. RNCF
2. RIRN
3. RIYF

Result:
≤ 0.2
0.395
0.265

Batch lookup, one-hybrid fitness for binding parS DNA per entry.
1. CAPG
2. GLPW

Result:
≤ 0.2
≤ 0.2
